// provenance: the supplement of paper PMC10724198

tested on: Saccharomyces cerevisiae; test: protein stability index of tFT-peptide fusion (C-terminal peptide) (PSI (0-1 scale)); higher = more stable (slower turnover); conditions: genetic background: wild type; temperature: 30 C
Exercise: for every item that follows, state its recorded protein stability index.
Give the value as a plain number.

Qu. Suppose we examine the sequence ERPQDWFEDIGE [FCY1 C-terminal 12 aa] ; what protein stability index value has been reported?
Ans. 0.686

Qu. Given AARPCLEGSVAP [YOR050C C-terminal 12 aa] , state its recorded protein stability index.
Ans. 0.68

Qu. Any idea what protein stability index was measured for MAEKQIASEFNY [DBP7 C-terminal 12 aa] ?
Ans. 0.662

Qu. Which protein stability index is reported for this sequence? LNFYNDNFGSQF [STP1 C-terminal 12 aa]
Ans. 0.71

Qu. Any idea what its protein stability index is? The sequence is TEPESDTEVETS [WHI5 C-terminal 12 aa]
Ans. 0.662

Qu. Sample EKMLAAPHQNKV [SPR28 C-terminal 12 aa] — what was its protein stability index?
Ans. 0.692
